# ASSAYED_TARGET: T1, CTLA4/His (human, UniProt P16410 36-161)
# T1 construct: not shown: His tag
# T1 sequence (looked up): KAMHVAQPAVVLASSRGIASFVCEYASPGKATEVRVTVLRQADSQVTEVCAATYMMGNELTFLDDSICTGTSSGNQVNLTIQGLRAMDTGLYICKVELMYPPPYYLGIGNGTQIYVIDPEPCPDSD
# PROCEDURE_SUMMARY: SPR, Biacore 8K, antibody captured on the chip, antigen as analyte, 1:1 binding model
Entries and their measured koff follow.
Supply the numeric figure in s⁻¹, leaving out any unit text.

BINDER	DISPLAY_UNIT	koff
AH01686 humanized anti-human CTLA4 monoclonal antibody (human IgG1/kappa) (antibody, V domains shown) VH: QVQLVQSGAEVVKPGASVKVSCKASGYTFTSYWINWIKQAPGQGLEWIGRIAPGSGTTYYNEMFTGRVTLTRDTSTSTAYIELSSLRSEDTAVYFCARGDYFDYWGQGTMVTVSS VL: DIQLTQSPSFLSASVGDRVTITCSASKSVSYIHWYQQKPGKAPKLLIYDTSTLASGVPSRFSGSGSGTEFTLTISSLQPEDFATYYCQQRTTYPLTFGQGTKLEIK	s⁻¹	3.18e-05

// Input: AH01696 humanized anti-human CTLA4 monoclonal antibody (human IgG1/kappa) (antibody, V domains shown) VH: VQLVQSGAEVVKPGASVKVSCKASGYTFTSYWINWIRQAPGQGLEWIGRIAPGSGTTYYNEMFTGRVTLTRDTSTSTAYMELSSLRSEDTAVYYCARGDYFDYWDQGTMVTVSS VL: DIQLTQSPSFLSASVGDRVTITCSASKSVSYIHWFQQKPGKAPKLLIYDTSTLASGVPSRFSGSGSGTEYTLTISSLQPEDFATYYCQQRTTYPLTFGQGTKLEIK . Output its koff only.
2.77e-05

// Input: AH01704 humanized anti-human CTLA4 monoclonal antibody (human IgG1/kappa) (antibody, V domains shown) VH: QVQLVQSGAEVVKPGASVKVSCKASGYTFTSYWINWVKQAPGQGLEWMGRIAPGSGTTYYNEMFTGRVTLTRDTSTSTAYMELSSLRSEDTAVYFCARGDYFDYWGQGTMVTVSS VL: DIQLTQSPSFLSASVGDRVTITCSASKSVSYIHWYQQKPGKAPKLLIYDTSTLASGVPSRFSGSGSGTEYTLTISSLQPEDFATYYCQQRTTYPLTFGQGTKLEIK . Output its koff only.
1.12e-05
